src = ChEMBL document CHEMBL4261537

# measuredOn: Cholinesterase (Equus caballus)
# Sequence (P81908 whole entry): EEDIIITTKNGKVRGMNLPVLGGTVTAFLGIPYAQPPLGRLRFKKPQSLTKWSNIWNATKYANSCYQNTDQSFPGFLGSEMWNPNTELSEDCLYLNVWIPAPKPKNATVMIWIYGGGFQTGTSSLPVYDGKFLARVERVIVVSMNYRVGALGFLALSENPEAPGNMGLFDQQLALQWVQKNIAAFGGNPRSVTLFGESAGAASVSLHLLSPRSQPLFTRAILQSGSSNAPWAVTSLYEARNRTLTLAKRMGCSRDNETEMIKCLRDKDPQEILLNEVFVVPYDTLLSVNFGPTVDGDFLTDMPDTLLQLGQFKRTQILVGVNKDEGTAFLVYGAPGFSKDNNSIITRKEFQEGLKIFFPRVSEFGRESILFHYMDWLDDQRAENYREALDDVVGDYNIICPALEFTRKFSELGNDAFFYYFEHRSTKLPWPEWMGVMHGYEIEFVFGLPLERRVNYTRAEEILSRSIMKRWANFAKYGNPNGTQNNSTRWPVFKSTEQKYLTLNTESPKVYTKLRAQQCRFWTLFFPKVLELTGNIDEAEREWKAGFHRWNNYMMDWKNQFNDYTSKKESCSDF
# methodSummary: Inhibition of equine serum BuChE using S-butyrylthiocholine iodide as substrate preincubated for 5 mins followed by substrate addition measured at 1 to 3 mins time interval by Ellman's method
Hi! Could you tag entries with IC50 below 20 µM as true (1), and those at or above as false (0)? Much appreciated.

smilesentry=CN(C)CCCOc1cccc(/C=C2\COc3ccccc3C2=O)c1 cat="true (1)"
smilesentry=CN(C)CCOc1ccccc1/C=C1\COc2ccccc2C1=O cat="true (1)"
smilesentry=CCN(CCOc1ccc(/C=C2\COc3ccccc3C2=O)cc1)Cc1ccccc1 cat="false (0)"
smilesentry=CN(C)CCOc1ccc(/C=C2\COc3ccccc3C2=O)cc1 cat="false (0)"
smilesentry=CCN(CC)CCCOc1ccc(/C=C2\COc3ccccc3C2=O)cc1 cat="true (1)"
smilesentry=CN(CCCOc1ccc(/C=C2\COc3ccccc3C2=O)cc1)Cc1ccccc1 cat="true (1)"
smilesentry=CN(C)CCCCOc1ccc(/C=C2\COc3ccccc3C2=O)cc1 cat="true (1)"
smilesentry=O=C1/C(=C/c2ccc(OCCCN3CCN(Cc4ccccc4)CC3)cc2)COc2ccccc21 cat="false (0)"
smilesentry=CN1CCN(CCCOc2ccc(/C=C3\COc4ccccc4C3=O)cc2)CC1 cat="true (1)"
smilesentry=CCN(CC)CCCOc1cccc(/C=C2\COc3ccccc3C2=O)c1 cat="true (1)"
smilesentry=CN1CCN(CCCCOc2ccc(/C=C3\COc4ccccc4C3=O)cc2)CC1 cat="true (1)"
smilesentry=CN(CCOc1ccc(/C=C2\COc3ccccc3C2=O)cc1)Cc1ccccc1 cat="false (0)"
smilesentry=CCN(CC)CCCOc1ccccc1/C=C1\COc2ccccc2C1=O cat="true (1)"
smilesentry=O=C1/C(=C/c2ccc(OCCN3CCN(Cc4ccccc4)CC3)cc2)COc2ccccc21 cat="false (0)"
smilesentry=CN(C)CCOc1cccc(/C=C2\COc3ccccc3C2=O)c1 cat="true (1)"

###

# Organism: Homo sapiens
# methodSummary: Selectivity index, ratio of IC50 for human serum BuChE to IC50 for human erythrocytes AChE
Hi! Could you tag entries with Ratio IC50 below 1 as met, and those at or above as not met? Much appreciated.

smilesentry=CCN(CC)CCOc1ccc(/C=C2\COc3ccccc3C2=O)cc1 cat="not met"
smilesentry=CN(CCCCCCOc1ccc(/C=C2\COc3ccccc3C2=O)cc1)Cc1ccccc1 cat=met
smilesentry=CN(C)CCOc1cccc(/C=C2\COc3ccccc3C2=O)c1 cat="not met"
smilesentry=CCN(CC)CCOc1cccc(/C=C2\COc3ccccc3C2=O)c1 cat=met
smilesentry=O=C1/C(=C/c2ccc(OCCCN3CCN(Cc4ccccc4)CC3)cc2)COc2ccccc21 cat="not met"

###

# measuredOn: Amine oxidase [flavin-containing] B (Homo sapiens, UniProt P27338)
# methodSummary: Non-competitive inhibition of recombinant human MAO-B assessed as reduction in H2O2 production at 0.015 to 0.06 uM using p-tyramine as substrate preincubated for 15 mins followed by substrate addition by Lineweaver-Burk plot analysis
measuredProperty: Ki (µM)

smilesentry=CN(C)CCOc1ccc(/C=C2\COc3ccccc3C2=O)cc1 measuredon="Amine oxidase [flavin-containing] B (Homo sapiens, UniProt P27338)" measuredproperty=Ki recordedvalue=0.551

###

# methodSummary: Selectivity index, ratio of IC50 for equine serum BuChE to IC50 for electric eel AChE
measuredProperty: Ratio IC50

smilesentry=CCN(CC)CCOc1cccc(/C=C2\COc3ccccc3C2=O)c1 recordedvalue=0.403
smilesentry=CN(C)CCCOc1cccc(/C=C2\COc3ccccc3C2=O)c1 recordedvalue=0.435
smilesentry=CN1CCN(CCCCCCOc2ccc(/C=C3\COc4ccccc4C3=O)cc2)CC1 recordedvalue=0.843
smilesentry=CCN(CC)CCCCOc1ccc(/C=C2\COc3ccccc3C2=O)cc1 recordedvalue=0.756
smilesentry=CN1CCN(CCCOc2ccc(/C=C3\COc4ccccc4C3=O)cc2)CC1 recordedvalue=1.53
smilesentry=O=C1/C(=C/c2ccc(OCCN3CCN(Cc4ccccc4)CC3)cc2)COc2ccccc21 recordedvalue=1.5
smilesentry=CN(C)CCCOc1ccccc1/C=C1\COc2ccccc2C1=O recordedvalue=0.116

###

# methodSummary: Selectivity index, ratio of IC50 for equine serum BuChE to IC50 for electric eel AChE
Kindly return T if reported Ratio IC50 is no lower than 0.8; return F if it is lower.

smilesentry=CN(CCOc1ccc(/C=C2\COc3ccccc3C2=O)cc1)Cc1ccccc1 cat=T
smilesentry=O=C1/C(=C/c2ccc(OCCCN3CCN(Cc4ccccc4)CC3)cc2)COc2ccccc21 cat=T
smilesentry=CN(C)CCCOc1ccc(/C=C2\COc3ccccc3C2=O)cc1 cat=T
smilesentry=CCN(CC)CCCOc1ccccc1/C=C1\COc2ccccc2C1=O cat=F
smilesentry=CCN(CC)CCCOc1cccc(/C=C2\COc3ccccc3C2=O)c1 cat=F
smilesentry=CCN(CCCOc1ccc(/C=C2\COc3ccccc3C2=O)cc1)Cc1ccccc1 cat=F
smilesentry=CN(C)CCOc1ccc(/C=C2\COc3ccccc3C2=O)cc1 cat=T
smilesentry=O=C1/C(=C/c2ccc(OCCCCCCN3CCN(Cc4ccccc4)CC3)cc2)COc2ccccc21 cat=T
smilesentry=CN(C)CCOc1ccccc1/C=C1\COc2ccccc2C1=O cat=F
smilesentry=O=C1/C(=C/c2ccc(O)cc2)COc2ccccc21 cat=T
smilesentry=CCN(CC)CCOc1ccc(/C=C2\COc3ccccc3C2=O)cc1 cat=T
smilesentry=CCN(CCCCCCOc1ccc(/C=C2\COc3ccccc3C2=O)cc1)Cc1ccccc1 cat=T
smilesentry=CCN(CC)CCCOc1ccc(/C=C2\COc3ccccc3C2=O)cc1 cat=T
smilesentry=CCN(CC)CCCCCCOc1ccc(/C=C2\COc3ccccc3C2=O)cc1 cat=T
smilesentry=CN(CCCCCCOc1ccc(/C=C2\COc3ccccc3C2=O)cc1)Cc1ccccc1 cat=T
smilesentry=CN(C)CCCCCCOc1ccc(/C=C2\COc3ccccc3C2=O)cc1 cat=F
smilesentry=CCN(CC)CCOc1ccccc1/C=C1\COc2ccccc2C1=O cat=F
smilesentry=CN(CCCOc1ccc(/C=C2\COc3ccccc3C2=O)cc1)Cc1ccccc1 cat=F
smilesentry=CN(C)CCCCOc1ccc(/C=C2\COc3ccccc3C2=O)cc1 cat=T
smilesentry=CN(C)CCOc1cccc(/C=C2\COc3ccccc3C2=O)c1 cat=T
smilesentry=CCN(CCOc1ccc(/C=C2\COc3ccccc3C2=O)cc1)Cc1ccccc1 cat=T

###

# measuredOn: Amine oxidase [flavin-containing] B (Homo sapiens)
# Sequence (P27338 whole entry): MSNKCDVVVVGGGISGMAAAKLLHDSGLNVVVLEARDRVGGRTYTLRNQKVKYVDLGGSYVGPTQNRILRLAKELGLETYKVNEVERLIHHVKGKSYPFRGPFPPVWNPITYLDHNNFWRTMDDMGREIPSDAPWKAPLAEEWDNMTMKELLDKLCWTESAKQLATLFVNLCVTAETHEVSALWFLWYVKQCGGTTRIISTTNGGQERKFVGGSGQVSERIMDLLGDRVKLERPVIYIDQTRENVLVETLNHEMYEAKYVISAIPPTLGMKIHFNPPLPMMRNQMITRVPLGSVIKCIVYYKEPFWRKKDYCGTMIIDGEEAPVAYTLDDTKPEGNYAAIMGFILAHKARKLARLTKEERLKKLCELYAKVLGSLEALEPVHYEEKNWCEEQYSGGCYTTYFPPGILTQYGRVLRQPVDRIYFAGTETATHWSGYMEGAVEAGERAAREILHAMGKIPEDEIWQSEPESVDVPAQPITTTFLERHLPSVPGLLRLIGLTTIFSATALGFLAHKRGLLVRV
# methodSummary: Inhibition of recombinant human MAO-B assessed as reduction in H2O2 production using p-tyramine as substrate preincubated for 15 mins followed by substrate addition by Amplex red reagent based fluorescence assay
pIC50: −log10 of the molar value.
Kindly return 1 if reported pIC50 is no lower than 7; return 0 if it is lower.

smilesentry=CN(C)CCOc1ccc(/C=C2\COc3ccccc3C2=O)cc1 measuredon="Amine oxidase [flavin-containing] B (Homo sapiens)" cat=1
smilesentry=CCN(CC)CCCCCCOc1ccc(/C=C2\COc3ccccc3C2=O)cc1 measuredon="Amine oxidase [flavin-containing] B (Homo sapiens)" cat=0
smilesentry=CCN(CC)CCOc1cccc(/C=C2\COc3ccccc3C2=O)c1 measuredon="Amine oxidase [flavin-containing] B (Homo sapiens)" cat=0
smilesentry=CN(CCCOc1ccc(/C=C2\COc3ccccc3C2=O)cc1)Cc1ccccc1 measuredon="Amine oxidase [flavin-containing] B (Homo sapiens)" cat=0
smilesentry=O=C1/C(=C/c2ccc(OCCCN3CCN(Cc4ccccc4)CC3)cc2)COc2ccccc21 measuredon="Amine oxidase [flavin-containing] B (Homo sapiens)" cat=0
smilesentry=CN1CCN(CCCCOc2ccc(/C=C3\COc4ccccc4C3=O)cc2)CC1 measuredon="Amine oxidase [flavin-containing] B (Homo sapiens)" cat=0
smilesentry=CN(C)CCCCOc1ccc(/C=C2\COc3ccccc3C2=O)cc1 measuredon="Amine oxidase [flavin-containing] B (Homo sapiens)" cat=0
smilesentry=CN(C)CCCOc1cccc(/C=C2\COc3ccccc3C2=O)c1 measuredon="Amine oxidase [flavin-containing] B (Homo sapiens)" cat=1
smilesentry=CCN(CCCCCCOc1ccc(/C=C2\COc3ccccc3C2=O)cc1)Cc1ccccc1 measuredon="Amine oxidase [flavin-containing] B (Homo sapiens)" cat=0
smilesentry=CCN(CC)CCOc1ccc(/C=C2\COc3ccccc3C2=O)cc1 measuredon="Amine oxidase [flavin-containing] B (Homo sapiens)" cat=1
smilesentry=CN(C)CCCOc1ccc(/C=C2\COc3ccccc3C2=O)cc1 measuredon="Amine oxidase [flavin-containing] B (Homo sapiens)" cat=1
smilesentry=O=C1/C(=C/c2ccc(O)cc2)COc2ccccc21 measuredon="Amine oxidase [flavin-containing] B (Homo sapiens)" cat=0
smilesentry=CCN(CC)CCCCOc1ccc(/C=C2\COc3ccccc3C2=O)cc1 measuredon="Amine oxidase [flavin-containing] B (Homo sapiens)" cat=0
smilesentry=CN(CCOc1ccc(/C=C2\COc3ccccc3C2=O)cc1)Cc1ccccc1 measuredon="Amine oxidase [flavin-containing] B (Homo sapiens)" cat=0
smilesentry=CCN(CCCOc1ccc(/C=C2\COc3ccccc3C2=O)cc1)Cc1ccccc1 measuredon="Amine oxidase [flavin-containing] B (Homo sapiens)" cat=0
smilesentry=CN(C)CCOc1ccccc1/C=C1\COc2ccccc2C1=O measuredon="Amine oxidase [flavin-containing] B (Homo sapiens)" cat=0
smilesentry=CN(C)CCOc1cccc(/C=C2\COc3ccccc3C2=O)c1 measuredon="Amine oxidase [flavin-containing] B (Homo sapiens)" cat=0
smilesentry=CN(C)CCCOc1ccccc1/C=C1\COc2ccccc2C1=O measuredon="Amine oxidase [flavin-containing] B (Homo sapiens)" cat=0
